# Lookup of reported IC50 keyed by entry
# Study System: Recombinant human PKC-theta (His-tagged 362-706) (Homo sapiens, UniProt Q04759)
# Construct: Recombinant human PKC-theta (His-tagged 362-706); His
# Sequence (Q04759 362-706): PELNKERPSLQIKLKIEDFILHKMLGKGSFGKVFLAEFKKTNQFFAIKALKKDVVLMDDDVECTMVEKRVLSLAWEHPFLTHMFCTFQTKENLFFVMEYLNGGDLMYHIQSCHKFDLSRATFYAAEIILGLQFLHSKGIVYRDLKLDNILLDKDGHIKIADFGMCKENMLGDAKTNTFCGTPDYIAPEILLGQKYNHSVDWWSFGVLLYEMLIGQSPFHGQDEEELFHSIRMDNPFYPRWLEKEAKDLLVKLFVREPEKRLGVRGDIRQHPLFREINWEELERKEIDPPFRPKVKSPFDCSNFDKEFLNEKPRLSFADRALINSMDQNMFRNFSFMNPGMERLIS
# Method Summary: PKC-theta inhibition assay (HTRF KinEASE kit)
# Assay type: biochemical
# Experimental Conditions: ATP 6.5 μM; STK substrate 525 nM; read-out: PKC-theta HTRF pIC50 (converted)

Compound | Value Unit | IC50
CC1C(=O)Nc2ncnc(-c3cccc(N4CCNCC4)c3)c21 (stereo not shown) | nM | 1000
CO[C@]1(C)C(=O)Nc2nccc(-c3cc(C(F)(F)F)cc(N4CCNC[C@H]4C)n3)c21 (single isomer, unassigned) [Example 158] | nM | 6.31
O=c1[nH]c2nccc(-c3cccc(N4CCNCC4)n3)c2[nH]1 | nM | 100
CN1CCN(c2cccc(-c3ccnc4[nH]c(=O)[nH]c34)c2)CC1 | nM | 5010
CC1(C)C(=O)Nc2nccc(-c3cc(C(F)(F)F)cc(N4C[C@H]5CC[C@@H](C4)N5)n3)c21 | nM | 20
C[C@@H]1CNCCN(c2cc(C(F)(F)F)cc(-c3ccnc4c3C(C)(C)C(=O)N4)n2)C1 | nM | 7.94
C[C@H]1CNCCN1c1cc(C(F)(F)F)cc(-c2ccnc3c2C(C)(C)C(=O)N3)n1 | nM | 6.31
CCC1(C)C(=O)Nc2nccc(-c3cc(C(F)(F)F)cc(N4CCNC[C@H]4C)n3)c21 (stereo partly shown) | nM | 1.58
CC1(C)C(=O)Nc2nccc(-c3cccc(OC4CCNCC4)c3)c21 | nM | 316
C[C@H]1CNCCN1c1cc(F)cc(-c2ccnc3c2C(C)(O)C(=O)N3)c1 (stereo partly shown) | nM | 12.6
CCC1(C)C(=O)Nc2nccc(-c3cc(C(F)(F)F)cc(N4CCN[C@@H](C)C4)n3)c21 (stereo partly shown) | nM | 5.01
CC1(C)C(=O)Nc2nccc(-c3cccc(S(=O)(=O)N4CCNCC4)c3)c21 | nM | 2000
C[C@@H]1CNC[C@@H](C)N1c1cc(C(F)(F)F)cc(-c2ccnc3c2C(C)(C)C(=O)N3)n1 | nM | 2
CC1(C)C(=O)Nc2nccc(-c3cc(C(F)(F)F)cc(N4CCN[C@@H](CO)C4)n3)c21 | nM | 3.16
CC1(O)C(=O)Nc2nccc(-c3cc(F)cc(N4CCNCC4)c3)c21 (stereo not shown) | nM | 12.6
C[C@@H]1CN(c2ccc(Cl)c(-c3ccnc4c3[C@](C)(O)C(=O)N4)c2)CCN1 | nM | 1000

----------
# Study System: Recombinant human PKC-theta (His-tagged 362-706) (Homo sapiens, UniProt Q04759)
# Construct: Recombinant human PKC-theta (His-tagged 362-706); His
# Method Summary: PKC-theta inhibition assay (HTRF KinEASE kit)
# Format: biochemical
# Experimental Conditions: ATP 6.5 μM; STK substrate 525 nM; binned A to H; read-out: PKC-theta HTRF pIC50 (binned) (converted)
# Lookup of reported IC50 keyed by entry

Compound | IC50
COC1(C)C(=O)Nc2nccc(-c3cc(Cl)cc(N4CCN[C@@H](C)C4)n3)c21 (stereo partly shown) | 3.16 to 10 nM
C[C@H]1CCNCCN1c1cc(C(F)(F)F)cc(-c2ccnc3c2C(C)(C)C(=O)N3)n1 | 3.16 to 10 nM
O=c1[nH]c2nccc(-c3cc(N4CCNCC4)ccc3F)c2[nH]1 | 316 to 1000 nM
CC1(C)C(=O)Nc2nccc(-c3cc(C(F)F)cc(N4CCNCC4)n3)c21 | 3.16 to 10 nM
